EXPERIMENTAL TARGET: human MGL from HeLa cells (Homo sapiens, UniProt Q99685)
Construct: combining endogenously expressed MGL from HeLa cells with test compounds; endogenous in cells; host or cells: HeLa cells / cell homogenates
Sequence (Q99685 whole entry): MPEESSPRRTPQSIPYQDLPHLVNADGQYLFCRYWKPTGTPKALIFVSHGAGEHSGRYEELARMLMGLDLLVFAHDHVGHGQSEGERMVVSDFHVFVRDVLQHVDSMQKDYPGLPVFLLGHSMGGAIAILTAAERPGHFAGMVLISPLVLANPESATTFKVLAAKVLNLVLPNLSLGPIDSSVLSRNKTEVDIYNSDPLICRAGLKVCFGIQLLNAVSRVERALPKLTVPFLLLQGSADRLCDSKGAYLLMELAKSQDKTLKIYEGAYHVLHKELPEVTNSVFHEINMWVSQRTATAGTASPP
TEST METHOD NOTES: In vitro MGL activity assay: [glycerol-1,3-3H]-oleyl glycerol cleavage by MGL from HeLa cells
Assay type: biochemical
MEASUREMENT PARAMETERS: 300 nM [Glycerol-1,3-3H]-oleyl glycerol, one hour
pIC50: −log10 of the molar value.
pIC50 below 7 gives 0; pIC50 at or above it gives 1.

Exam item: Check if pIC50 >= 7 (inclusive). Item: C[C@H]1c2nn(C)c(-c3cc(F)cc(C(F)F)c3)c2CCN1C(=O)c1ccc2c(c1)OCCC2
Marked response: 1

Exam item: Lookup C[C@H]1c2nn(C)c(-c3cc(F)c(F)c(F)c3)c2CCN1C(=O)c1cnn(C)c1C1CC1F (mixture of isomers)
Marked response: 1

Exam item: Lookup C[C@H]1c2nn(C)c(-c3ccc(F)c(F)c3F)c2CCN1C(=O)c1ccc2ncccc2c1
Marked response: 1

Exam item: Lookup COc1cc(F)cc(-c2c3c(nn2C)[C@H](C)N(C(=O)c2nccc(OC)c2Cl)CC3)c1
Marked response: 1

Exam item: Lookup C[C@H]1c2nn(C)c(-c3cc(F)c(F)c(F)c3)c2CCN1C(=O)c1nnc2ccccn12
Marked response: 0

---

EXPERIMENTAL TARGET: human MGL from HeLa cells (Homo sapiens, UniProt Q99685)
Construct: combining endogenously expressed MGL from HeLa cells with test compounds; endogenous in cells; host or cells: HeLa cells / cell homogenates
TEST METHOD NOTES: In vitro MGL activity assay: [glycerol-1,3-3H]-oleyl glycerol cleavage by MGL from HeLa cells
Type: biochemical
MEASUREMENT PARAMETERS: 300 nM [Glycerol-1,3-3H]-oleyl glycerol, one hour
PROPERTY MEASURED: pIC50
Kindly note that pIC50 refers to -log10 of the concentration in mol/L and answer with the value alone.

Exam item: Look up pIC50: COc1cncc(F)c1C(=O)N1CCc2c(nn(C)c2-c2cc(F)c(F)c(F)c2)[C@@H]1C
Marked response: 7.74

Exam item: Lookup C[C@H]1c2nn(C)c(-c3cc(F)c(F)c(F)c3)c2CCN1C(=O)c1nnn2ccccc12
Marked response: 7.62

Exam item: Lookup C[C@H]1c2nn(C)c(-c3cc(F)c(F)c(F)c3)c2CCN1C(=O)c1c(C(F)F)nc2ccccn12
Marked response: 7.89

Exam item: Lookup C[C@H]1c2nn(C)c(-c3cc(F)c(F)c(F)c3)c2CCN1C(=O)c1cnc2c(c1)OCCN2C
Marked response: 7.28

Exam item: Lookup C[C@H]1c2nn(C)c(-c3cc(F)c(F)c(F)c3)c2CCN1C(=O)c1nc(-c2ccccc2)cn1C
Marked response: 6.96

Exam item: Lookup COc1ncc(-c2c3c(nn2C)[C@H](C)N(C(=O)c2ccc4ncccc4c2)CC3)cc1C
Marked response: 6.50

Exam item: Lookup Cc1nc2ccc(C(=O)N3CCc4c(nn(C)c4-c4cc(F)c(F)c(F)c4)[C@@H]3C)cc2nc1C
Marked response: 7.59

Exam item: Lookup C[C@H]1c2nn(C)c(-c3cc(F)c(F)c(F)c3)c2CCN1C(=O)c1c(F)cnc2c1ccn2C
Marked response: 9.52

Exam item: Lookup CCOc1ccc(-c2c3c(nn2C)[C@H](C)N(C(=O)c2ccc4ncccc4c2)CC3)cc1
Marked response: 6.50

Exam item: Lookup C[C@H]1c2nn(C)c(-c3cc(F)c(F)c(F)c3)c2CCN1C(=O)c1ccnc2cccnc12
Marked response: 7.48

Exam item: Lookup C[C@H]1c2nn(C)c(-c3ccc(OC(F)(F)F)cc3)c2CCN1C(=O)c1ccc2ncccc2c1
Marked response: 7.12

Exam item: Lookup C[C@H]1c2nn(C)c(-c3cc(F)c(F)c(F)c3)c2CCN1C(=O)c1cnc2cccnn12
Marked response: 7.60

Exam item: Lookup C[C@H]1c2nn(C)c(-c3cc(F)c(F)c(F)c3)c2CCN1C(=O)c1ccn2ccncc12
Marked response: 8.14

Exam item: Lookup C[C@H]1c2nn(C)c(-c3cccc4cc[nH]c34)c2CCN1C(=O)c1ccc2ncccc2c1
Marked response: 7.64

Exam item: Lookup C[C@H]1c2nn(C)c(-c3csc(C(F)(F)F)c3)c2CCN1C(=O)c1ccc2ncccc2c1
Marked response: 8.14

Exam item: Lookup COc1cccc2c(C(=O)N3CCc4c(nn(C)c4-c4cc(F)c(F)c(F)c4)[C@@H]3C)ccnc12
Marked response: 7.32

Exam item: Lookup C[C@H]1c2nn(C)c(-c3cc(F)c(F)c(F)c3)c2CCN1C(=O)c1cccc2[nH]nnc12
Marked response: 6.18

Exam item: Lookup C[C@H]1c2nn(C)c(-c3cc(F)c(F)c(F)c3)c2CCN1C(=O)c1cnn(C)c1C1(F)CC1
Marked response: 7.49

Exam item: Lookup C[C@H]1c2nn(C)c(-c3cc(F)c(F)c(F)c3)c2CCN1C(=O)c1nccc2cn(C)nc12
Marked response: 6.39

Exam item: Lookup C[C@H]1c2nn(C)c(-c3cc(F)c(F)c(F)c3)c2CCN1C(=O)c1ccnc2c1CCOC2
Marked response: 6.96

Exam item: Lookup COc1nccc(C(=O)N2CCc3c(nn(C)c3-c3cc(F)cc(C(F)F)c3)[C@@H]2C)c1C
Marked response: 7.64

Exam item: Lookup Cc1nn(C)c(C)c1C(=O)N1CCc2c(nn(C)c2-c2cc(F)c(F)c(F)c2)[C@@H]1C
Marked response: 7.24

Exam item: Lookup CC1c2nn(C34CC(C3)C4)c(-c3ccccc3)c2CCN1C(=O)c1cnn(C)c1C1CC1 (racemic) [Example 615]
Marked response: 6.09

Exam item: Lookup C[C@H]1c2nn(C)c(-c3ccc(OC(F)F)nc3)c2CCN1C(=O)c1ccc2ncccc2c1
Marked response: 6.56

Exam item: Lookup C[C@H]1c2nn(C)c(-c3cc(F)c(F)c(F)c3)c2CCN1C(=O)c1nccc2ncccc12
Marked response: 7.86

Exam item: Lookup Cc1nc2c(C)ccnn2c1C(=O)N1CCc2c(nn(C)c2-c2cc(F)c(F)c(F)c2)[C@@H]1C
Marked response: 7.60

Exam item: Lookup C[C@H]1c2nn(C)c(-c3cc(F)c(F)c(F)c3)c2CCN1C(=O)c1cccn2ncc(Br)c12
Marked response: 7.34

Exam item: Lookup C[C@H]1c2nn(C)c(-c3ccc(Cl)c(Cl)c3)c2CCN1C(=O)c1ccc2ncccc2c1
Marked response: 7.82

Exam item: Lookup Cc1cnc2cccc(C(=O)N3CCc4c(nn(C)c4-c4cc(F)c(F)c(F)c4)[C@@H]3C)c2n1
Marked response: 7.13

Exam item: Lookup C[C@H]1c2nn(C)c(-c3cc(F)c(F)c(F)c3)c2CCN1C(=O)c1c[nH]c2cc(F)ccc12
Marked response: 7.42

---

EXPERIMENTAL TARGET: human MGL from HeLa cells (Homo sapiens)
Construct: combining endogenously expressed MGL from HeLa cells with test compounds; endogenous in cells; host or cells: HeLa cells / cell homogenates
TEST METHOD NOTES: In vitro MGL activity assay: [glycerol-1,3-3H]-oleyl glycerol cleavage by MGL from HeLa cells
Format: biochemical
MEASUREMENT PARAMETERS: 300 nM [Glycerol-1,3-3H]-oleyl glycerol, one hour incubation
Please provide measured IC50 for the entries that follow.
Your answer should be a plain number; it is taken to be in nM.

Exam item: Look up IC50: C[C@@H]1c2nn(C(F)F)c(-c3cc(F)c(F)c(F)c3)c2CCN1C(=O)c1ccc2ncccc2c1
Marked response: 550

Exam item: Lookup CC1c2nn(C)c(-c3cccc(Cl)c3)c2CCN1C(=O)c1ccc2nccnc2c1 (racemic)
Marked response: 18.4

Exam item: Lookup C[C@H]1c2nn(C)c(-c3cc(F)c(F)c(F)c3)c2CCN1C(=O)c1ccc(-c2ccn[nH]2)cc1
Marked response: 8.92

Exam item: Lookup CC(C)Oc1ccc(C(=O)N2CCc3c(nn(C)c3-c3cccc(Cl)c3)[C@@H]2C)cn1
Marked response: 330

Exam item: Lookup C[C@@H]1c2nn(C)c(-c3cc(F)cc(F)c3)c2CCN1C(=O)c1ccc2nccnc2c1 (single isomer, unassigned)
Marked response: 3740

Exam item: Lookup C[C@H]1c2nn(C)c(-c3cc(F)c(F)c(F)c3)c2CCN1C(=O)c1ccnc2c1ccn2C
Marked response: 0.64

Exam item: Lookup C[C@@H]1c2nn(C)c(-c3cc(F)cc(Cl)c3)c2CCN1C(=O)c1ccc2ncccc2c1
Marked response: 593

---

EXPERIMENTAL TARGET: human MGL from HeLa cells (Homo sapiens)
Construct: combining endogenously expressed MGL from HeLa cells with test compounds; endogenous in cells; host or cells: HeLa cells / cell homogenates
TEST METHOD NOTES: In vitro MGL activity assay: [glycerol-1,3-3H]-oleyl glycerol cleavage by MGL from HeLa cells
Format: biochemical
MEASUREMENT PARAMETERS: 300 nM [Glycerol-1,3-3H]-oleyl glycerol, one hour
Please provide measured log10 of IC50 for the entries that follow.
# log10 transformed; quantity=IC50; unit=nM

Exam item: Look up log10 of IC50: Cc1nc2ccccn2c1C(=O)N1CCc2c(nn(C)c2-c2cc(F)c(F)c(F)c2)[C@@H]1C [Example 397]
Marked response: 1.01

Exam item: Lookup C[C@H]1c2nn(C)c(-c3ccc4ccoc4c3)c2CCN1C(=O)c1ccc2ncccc2c1 [Example 532]
Marked response: 1.81

Exam item: Lookup C[C@H]1c2nn(C)c(-c3cc(F)c(F)c(F)c3)c2CCN1C(=O)c1ccc2c(n1)COCC2 [Example 566]
Marked response: 2.73

Exam item: Lookup Cc1nc2c(C)ncc(C)n2c1C(=O)N1CCc2c(nn(C)c2-c2cc(F)c(F)c(F)c2)[C@@H]1C [Example 459]
Marked response: 2.49

Exam item: Lookup C[C@H]1c2nn(C)c(-c3cc(F)c(F)c(F)c3)c2CCN1C(=O)c1cnc2c(c1)OCCO2 [Example 570]
Marked response: 2.13

Exam item: Lookup C[C@H]1c2nn(C)c(-c3cc(F)c(F)c(F)c3)c2CCN1C(=O)c1ccc2c(c1)CCCO2 [Example 580]
Marked response: 1.29

Exam item: Lookup C[C@H]1c2nn(C)c(-c3cc(F)c(F)c(F)c3)c2CCN1C(=O)c1ccc2c(c1)OCC(=O)N2C [Example 590]
Marked response: 2.24

Exam item: Lookup Cc1ccc2c(C(=O)N3CCc4c(nn(C)c4-c4cc(F)c(F)c(F)c4)[C@@H]3C)nccc2n1 [Example 487]
Marked response: 1.55

Exam item: Lookup C[C@H]1c2nn(C)c(-c3cc(F)c(F)c(F)c3)c2CCN1C(=O)c1ccc2cncnc2c1 [Example 480]
Marked response: 2.32

Exam item: Lookup [2H]c1cnc2cc(C(=O)N3CCc4c(nn(C)c4-c4cc(F)c(F)c(F)c4)[C@@H]3C)ccc2n1 [Example 483]
Marked response: 1.01

Exam item: Lookup COc1cc(Cl)cc(-c2c3c(nn2C)[C@H](C)N(C(=O)c2c(C)nc4ccc(F)cn24)CC3)c1 [Example 406]
Marked response: 1.35

Exam item: Lookup C[C@H]1c2nn(C)c(-c3cc(F)c(F)c(F)c3)c2CCN1C(=O)c1c[nH]c2cccc(F)c12 [Example 357]
Marked response: 0.95
